- Tested on: NCI-H196 SCLC complex tumor spheroid viability
- procedureSummary: Anticancer human tumor NCI-H196 cell line growth inhibition;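 further: spheroids exposed to compounds for 7 days before readout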
- conditions: second compound 1 µM; first compound 3.16 µM; stronger effect = lower value
Sorting guide: entries reporting viability, T/C beneath 90% go in the True pile, the rest go in the False pile.

>  <compound>
COc1ccc([C@@H](O)c2cc(-c3ncnc4cc(N5CCOCC5)ccc34)c(F)cc2Cl)nn1 + Cn1nnc2c(C(N)=O)ncn2c1=O

>  <classAssignment>
True

$$$$
>  <compound>
CC1COCCN1c1cc(-c2ccnn2C)c2ccnc(-c3ccn[nH]3)c2n1 (stereo unspecified) + Cn1nnc2c(C(N)=O)ncn2c1=O

>  <classAssignment>
True

$$$$
>  <compound>
COc1cc(C)[nH]c(=O)c1CN1CCc2c(Cl)cc(C(OC)C3COC3)c(Cl)c2C1=O (stereo unspecified) + Cn1nnc2c(C(N)=O)ncn2c1=O

>  <classAssignment>
False

$$$$
>  <compound>
CC(C)n1c(=O)n(C)c2cnc3cc(F)c(-c4ccc(OCCCN5CCCCC5)nc4)cc3c21 + Cn1nnc2c(C(N)=O)ncn2c1=O

>  <classAssignment>
False

$$$$
>  <compound>
[2H]c1nc(C)nc([2H])c1-c1cc(NC[C@@H](C)c2cccc3c(C(=O)NC)ccnc23)ncn1 + Cn1nnc2c(C(N)=O)ncn2c1=O

>  <classAssignment>
False

$$$$
